target: HIS-TGFβR2 WT (Homo sapiens); assay: HTRF probe-displacement assay with HIS-TGFβR2 WT; type: binding; conditions: 1 nM HIS-TGFβR2 WT, labeled probe at Kd, 1 hour at room temperature
Sequence (P37173 23-567): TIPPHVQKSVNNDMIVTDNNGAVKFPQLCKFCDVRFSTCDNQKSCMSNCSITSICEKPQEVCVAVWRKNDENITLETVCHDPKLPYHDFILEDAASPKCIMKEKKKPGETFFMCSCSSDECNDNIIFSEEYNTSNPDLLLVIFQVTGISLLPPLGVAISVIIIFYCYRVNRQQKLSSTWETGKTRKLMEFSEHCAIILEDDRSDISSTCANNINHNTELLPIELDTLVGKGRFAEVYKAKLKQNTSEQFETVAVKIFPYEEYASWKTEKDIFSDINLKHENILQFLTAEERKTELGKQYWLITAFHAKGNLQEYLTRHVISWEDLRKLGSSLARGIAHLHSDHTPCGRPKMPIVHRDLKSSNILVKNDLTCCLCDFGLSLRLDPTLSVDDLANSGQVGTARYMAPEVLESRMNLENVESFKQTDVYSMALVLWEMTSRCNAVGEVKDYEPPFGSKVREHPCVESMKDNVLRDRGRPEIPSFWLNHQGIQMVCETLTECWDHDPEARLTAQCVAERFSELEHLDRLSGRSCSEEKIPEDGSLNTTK
Counter-ions that a name gives are not always drawn.
Recorded IC50 by entry
The reply should contain only the number, in µM.

# count of solved cases: 10
[
  {
    "molecule": "Cn1cc(-c2ccc3ncc(C(N)=O)n3c2)c(-c2cccc(C(F)(F)F)n2)n1 [Example 10]",
    "IC50 [µM]": 8.87
  },
  {
    "molecule": "Cc1cccc(-c2n[nH]c(C(C)C)c2-c2ccc3nccn3c2)n1 [Example 118]",
    "IC50 [µM]": 2.69
  },
  {
    "molecule": "CCOC(=O)c1cnc2ccc(-c3c[nH]nc3-c3ccc(F)cc3)cn12 [Example 57]",
    "IC50 [µM]": 3.71
  },
  {
    "molecule": "Clc1ccc(-c2n[nH]cc2-c2ccc3nccn3c2)cc1 [Example 45]",
    "IC50 [µM]": 4.23
  },
  {
    "molecule": "N#Cc1cnc2ccc(-c3c(-c4ccc(F)cc4)n[nH]c3C3CC3)cn12 [Example 84]",
    "IC50 [µM]": 2.68
  },
  {
    "molecule": "NC(=O)c1cnc2ccc(-c3c[nH]nc3-c3ccc(F)c(Cl)c3)cn12 [Example 42, TFA]",
    "IC50 [µM]": 0.33
  },
  {
    "molecule": "Cc1cccc(-c2nn(C)c(C)c2-c2ccc3ncc(C(N)=O)n3c2)n1 [Example 65]",
    "IC50 [µM]": 0.194
  },
  {
    "molecule": "Fc1ccc(-c2n[nH]cc2-c2ccc3nccn3c2)cc1Cl [Example 40, TFA]",
    "IC50 [µM]": 4.97
  },
  {
    "molecule": "CC(C)(C)Nc1cnc2ccc(-c3c[nH]nc3-c3ccc(F)cc3)cn12 [Example 15]",
    "IC50 [µM]": 12.7
  },
  {
    "molecule": "Cc1cc(-c2n[nH]cc2-c2ccc3ncc(C#N)n3c2)ccc1F [Example 49]",
    "IC50 [µM]": 0.104
  }
]

Problem: # query: IC50 of entry NC(=O)c1cnc2ccc(-c3c[nH]nc3-c3cccc(C(F)F)n3)cn12 [Example 5]
Result: 0.193

---

biological target: HIS-TGFβR1 T204D (Homo sapiens, UniProt P36897, T204D); assay: HTRF probe-displacement assay with HIS-TGFβR1 T204D; assay type: binding; conditions: 1 nM HIS-TGFβR1 T204D, labeled probe at Kd, 1 hour at room temperature
Sequence (P36897 34-503 T204D): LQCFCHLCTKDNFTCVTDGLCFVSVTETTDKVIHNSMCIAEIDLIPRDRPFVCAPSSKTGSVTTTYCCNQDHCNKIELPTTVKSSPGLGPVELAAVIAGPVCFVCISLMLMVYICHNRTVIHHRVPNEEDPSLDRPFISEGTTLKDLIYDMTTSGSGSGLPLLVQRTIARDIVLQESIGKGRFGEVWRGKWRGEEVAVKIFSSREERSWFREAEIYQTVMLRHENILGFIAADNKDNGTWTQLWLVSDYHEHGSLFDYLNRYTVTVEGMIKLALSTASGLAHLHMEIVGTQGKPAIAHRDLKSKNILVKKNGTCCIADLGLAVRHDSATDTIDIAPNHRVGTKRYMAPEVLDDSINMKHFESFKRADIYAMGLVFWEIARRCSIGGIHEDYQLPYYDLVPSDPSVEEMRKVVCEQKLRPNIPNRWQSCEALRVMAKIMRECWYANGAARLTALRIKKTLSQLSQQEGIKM
assay-readout: IC50 (µM)
The answer is to be given in µM; state only the numeric part.

Problem: Reported IC50, molecule `Cc1cccc(-c2nn(CC(F)F)cc2-c2ccc3ncc(C(N)=O)n3c2)n1` : ____
Result: 0.001

---

biological target: HIS-TGFβR1 T204D (Homo sapiens, UniProt P36897, T204D); assay: HTRF probe-displacement assay with HIS-TGFβR1 T204D; assay type: binding; settings: 1 nM HIS-TGFβR1 T204D, labeled probe at Kd, 1 hour at room temperature
// values below are reported IC50
Numeric answer only, unit µM assumed.

Would you please look over these solved cases?
[
  {
    "compound": "N#Cc1cnc2ccc(-c3c[nH]nc3-c3ccc(F)cc3)cn12 [Example 35]",
    "IC50, µM": 0.011
  },
  {
    "compound": "Cc1cccc(-c2c(-c3ccc4nccn4c3)c(C(C)C)nn2C)n1 [Example 120]",
    "IC50, µM": 0.115
  }
]

Problem: What value of measured IC50 is listed for N#Cc1cnc2ccc(-c3c(-c4ccc(F)cc4)n[nH]c3C(=O)O)cn12 [Example 129] ?
Result: 1.76

Problem: Input Nc1cc(-c2c[nH]nc2-c2ccc(F)cc2)cn2ccnc12 [Example 32]
Result: 0.465

Problem: Check Cc1[nH]nc(-c2cccc(F)n2)c1-c1ccc2ncc(C#N)n2c1 [Example 66] too.
Result: 0.001

Problem: Repeat for the following compound: C=C(C)c1[nH]nc(-c2ccc(F)cc2)c1-c1ccc2nccn2c1 [Example 136]
Result: 0.023

Problem: One more compound: Cn1nc(C2CC2)c(-c2ccc3ncc(F)n3c2)c1-c1ccc(F)cc1 [Example 104]
Result: 2.24

Problem: Entry to check: Cc1cc(-c2n[nH]c(C3CC3)c2-c2ccc3ncc(C(N)=O)n3c2)ccc1F [Example 100]
Result: 0.001

Problem: Check CCc1[nH]nc(-c2ccc(F)cc2)c1-c1ccc2nccn2c1 [Example 83] too.
Result: 0.017

Problem: Again, but for N#CCn1cc(-c2ccc3ncc(C#N)n3c2)c(-c2ccc(F)c(Cl)c2)n1 [Example 43]
Result: 0.001

Source listed as patent US20190292179A1.
